TARGET_DESC: 5-hydroxytryptamine receptor 1A (Homo sapiens)
Sequence (whole entry): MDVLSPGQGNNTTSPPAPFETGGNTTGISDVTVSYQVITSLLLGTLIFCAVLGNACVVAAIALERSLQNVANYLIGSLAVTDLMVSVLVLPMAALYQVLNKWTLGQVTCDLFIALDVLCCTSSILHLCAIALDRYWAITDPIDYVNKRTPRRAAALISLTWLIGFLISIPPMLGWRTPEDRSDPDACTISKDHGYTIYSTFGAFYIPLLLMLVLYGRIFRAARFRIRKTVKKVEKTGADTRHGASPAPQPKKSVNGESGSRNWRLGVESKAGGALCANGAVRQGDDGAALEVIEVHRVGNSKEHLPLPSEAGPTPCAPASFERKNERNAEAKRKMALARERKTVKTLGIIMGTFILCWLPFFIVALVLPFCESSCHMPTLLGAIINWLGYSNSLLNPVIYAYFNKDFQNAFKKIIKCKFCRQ
TEST_NAME: Antagonistic potency as binding affinity of 5-HT stimulated [35S]GTP gamma S to human 5-HT1A receptor
Assay type: functional
Recorded Kb values for a group of molecules are listed next.
Write the number in nM without appending the unit.

// below: answered molecules
MOLECULE	ASSAY_RESULT
O[C@@H](CNCC[C@H](Oc1ccc(C(F)(F)F)cc1)c1ccccc1)COc1cccc2[nH]ccc12	0.2
O[C@@H](CNCC[C@H](Oc1ccc(C(F)(F)F)cc1)c1ccccc1)COc1cccc2ccccc12	37.9
O[C@H](CNCC[C@H](Oc1ccc(C(F)(F)F)cc1)c1ccccc1)COc1cccc2[nH]ccc12	1.4
O[C@H](COc1cccc2[nH]ccc12)CN1CC[C@@H](c2ccc(F)cc2)[C@H](COc2ccc3c(c2)OCO3)C1	0.7
O[C@@H](COc1cccc2[nH]ccc12)CN1CC[C@@H](c2ccc(F)cc2)[C@H](COc2ccc3c(c2)OCO3)C1	7.5
OC(CNCCC(Oc1ccc(C(F)(F)F)cc1)c1ccccc1)COc1ccccc1C1CCCC1 (stereo not drawn)	15.2
O[C@H](CNCC[C@H](Oc1ccc(C(F)(F)F)cc1)c1ccccc1)COc1cccc2ccccc12	388

Moving on to another molecule below.
Query (molecule): OC(CNCCCCCCN1CC[C@H](c2ccc(F)cc2)[C@@H](COc2ccc3c(c2)OCO3)C1)COc1cccc2[nH]ccc12 (stereo partly drawn) ; field requested: Kb
4.3
